Parameter: phosphorylation enrichment. Scope: all listed entries.
Biological target: MERTK (UniProt Q12866)
Sequence (Q12866 whole entry, looked up): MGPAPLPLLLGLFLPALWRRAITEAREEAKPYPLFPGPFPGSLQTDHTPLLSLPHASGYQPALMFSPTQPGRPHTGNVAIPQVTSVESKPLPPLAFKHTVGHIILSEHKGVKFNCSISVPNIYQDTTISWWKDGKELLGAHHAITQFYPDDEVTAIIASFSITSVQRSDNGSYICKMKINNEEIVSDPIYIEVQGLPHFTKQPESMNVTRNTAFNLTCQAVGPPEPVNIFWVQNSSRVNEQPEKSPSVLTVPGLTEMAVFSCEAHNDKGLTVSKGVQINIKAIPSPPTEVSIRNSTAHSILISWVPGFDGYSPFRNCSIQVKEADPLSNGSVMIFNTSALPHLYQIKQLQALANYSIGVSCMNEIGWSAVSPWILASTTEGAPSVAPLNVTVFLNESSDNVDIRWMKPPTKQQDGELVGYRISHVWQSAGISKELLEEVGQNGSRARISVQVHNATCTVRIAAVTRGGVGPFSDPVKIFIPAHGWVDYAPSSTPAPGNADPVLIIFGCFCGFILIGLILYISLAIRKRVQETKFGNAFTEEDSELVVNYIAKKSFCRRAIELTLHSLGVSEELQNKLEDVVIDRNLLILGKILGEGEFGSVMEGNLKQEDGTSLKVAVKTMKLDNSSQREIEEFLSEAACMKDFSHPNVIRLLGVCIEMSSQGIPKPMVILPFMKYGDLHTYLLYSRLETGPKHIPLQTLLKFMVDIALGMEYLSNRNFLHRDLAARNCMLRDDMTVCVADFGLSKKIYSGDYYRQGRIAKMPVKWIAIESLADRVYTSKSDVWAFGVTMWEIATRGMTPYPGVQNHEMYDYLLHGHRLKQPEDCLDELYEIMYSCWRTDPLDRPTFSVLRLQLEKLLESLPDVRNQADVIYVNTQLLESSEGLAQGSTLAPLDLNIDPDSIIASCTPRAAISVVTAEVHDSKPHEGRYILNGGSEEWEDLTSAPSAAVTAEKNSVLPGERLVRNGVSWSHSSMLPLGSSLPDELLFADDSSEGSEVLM
Assay: phosphorylation enrichment, bacterial display (enrichment ratio); higher = better substrate or ligand; peptides without Tyr show the background;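 also: 11-residue human phosphosite peptides and single-mutation variants displayed on the E. coli surface, counted by deep sequencing, each peptide's frequency after selection divided by its frequency in the unselected input library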;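 also: frequency after pTyr selection over input frequency; kinase dosed for 20-30% of maximal phosphorylation in three min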
Kindly provide the number alone.

Example cases with answers are listed next.
| SEQUENCE DATA | phosphorylation enrichment |
| --- | --- |
| NFATLHLKIYH [PDE6B_Y219_Y219H] | 0.46 |
| LLTALYFISWG [KCNH2_Y780_R784W] | 3.92 |

Simply: KLKEKYEKDIA [HMGB1_Y155] , MERTK (UniProt Q12866), phosphorylation enrichment = 0.663

Simply: EEGNPSYSSAR [MCCC2_Y520_Y520S] , MERTK (UniProt Q12866), phosphorylation enrichment = 0.501

Simply: MEYAKYGSLRG [RET_Y809_V804M] , MERTK (UniProt Q12866), phosphorylation enrichment = 0.436

Simply: VVAHHYSFAPD [TNS3_Y601_Q600H] , MERTK (UniProt Q12866), phosphorylation enrichment = 0.593

Simply: LQRCKYSHMEP [TEX45_Y434] , MERTK (UniProt Q12866), phosphorylation enrichment = 0.614

----------
Target: MERTK (UniProt Q12866)
Test: phosphorylation enrichment, bacterial display (enrichment ratio); higher = better substrate or ligand; peptides without Tyr show the background
Entry flag: true if phosphorylation enrichment reaches 0.4; false if it does not.

| SEQUENCE DATA | CLASS |
| --- | --- |
| DSEIRYLSADS [TTF1_Y476] | true |

Incoming: Could you verify whether the entry LTGIAYSLPHW [SLC22A14_Y291] shows phosphorylation enrichment of no less than 0.4?
Outgoing: true

----------
Parameter: phosphorylation enrichment. Scope: all listed entries.
Molecular target: Fes (UniProt P07332)
Sequence (P07332 whole entry, looked up): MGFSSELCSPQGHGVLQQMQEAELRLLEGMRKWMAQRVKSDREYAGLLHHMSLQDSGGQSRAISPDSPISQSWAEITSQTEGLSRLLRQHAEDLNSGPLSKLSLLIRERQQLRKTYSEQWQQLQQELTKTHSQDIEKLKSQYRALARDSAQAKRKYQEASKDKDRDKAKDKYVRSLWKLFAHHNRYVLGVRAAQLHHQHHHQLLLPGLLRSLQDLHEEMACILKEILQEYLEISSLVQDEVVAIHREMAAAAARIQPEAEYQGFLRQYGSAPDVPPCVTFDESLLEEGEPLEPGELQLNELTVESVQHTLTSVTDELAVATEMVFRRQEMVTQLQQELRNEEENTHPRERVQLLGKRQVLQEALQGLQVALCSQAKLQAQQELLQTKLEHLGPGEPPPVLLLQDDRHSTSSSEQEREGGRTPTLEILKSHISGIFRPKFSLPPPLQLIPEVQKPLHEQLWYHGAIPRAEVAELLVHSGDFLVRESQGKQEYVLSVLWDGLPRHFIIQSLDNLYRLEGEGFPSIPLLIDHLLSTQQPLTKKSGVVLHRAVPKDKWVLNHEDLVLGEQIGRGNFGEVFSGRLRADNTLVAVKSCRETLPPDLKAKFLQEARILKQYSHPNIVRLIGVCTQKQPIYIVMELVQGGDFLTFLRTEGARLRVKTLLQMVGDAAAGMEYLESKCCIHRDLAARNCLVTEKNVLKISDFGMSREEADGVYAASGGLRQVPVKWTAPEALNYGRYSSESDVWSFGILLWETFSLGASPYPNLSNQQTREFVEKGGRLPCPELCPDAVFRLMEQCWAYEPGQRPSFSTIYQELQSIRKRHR
Experiment: phosphorylation enrichment, bacterial display (enrichment ratio); higher = better substrate or ligand; peptides without Tyr show the background
Kindly provide the number alone.

| SEQUENCE DATA | SYSTEM UNDER TEST | READOUT KIND | OBSERVED VALUE |
| --- | --- | --- | --- |
| CCNHPYLINGA [CHD7_Y1256] | Fes (UniProt P07332) | phosphorylation enrichment | 0.851 |
| RLLRGHDQSAY [HLA-C_Y137_Y137H] | Fes (UniProt P07332) | phosphorylation enrichment | 0.587 |
| MLEVPYVDRNS [F10_Y384] | Fes (UniProt P07332) | phosphorylation enrichment | 0.89 |
| LHAAAYRNALA [UQCRC2_Y182] | Fes (UniProt P07332) | phosphorylation enrichment | 0.871 |
| TTSQPYRCLCS [USH2A_Y534] | Fes (UniProt P07332) | phosphorylation enrichment | 0.941 |

Lab book: phosphorylation enrichment of RKETFYTLSCR [GUCY2C_Y681] noted as 2.07

Lab book: phosphorylation enrichment of SMAKFYASEIA [ACADSB_Y373_YF] noted as 0.803

Lab book: phosphorylation enrichment of GTATTYLCGVK [ALPL_Y117_A116T] noted as 1.13

Lab book: phosphorylation enrichment of ADKAAYLQSLN [MYH2_Y389] noted as 0.789

Lab book: phosphorylation enrichment of SHLLRYLSWTV [CLCNKB_Y93] noted as 1.23

Lab book: phosphorylation enrichment of ITKNPYDPPGR noted as 0.766

Lab book: phosphorylation enrichment of EAIMTYVSSFY [ACTN4_Y260_K255E] noted as 1.12

----------
System: Fer (mouse)
Assay: phosphorylation enrichment, bacterial display (enrichment ratio); higher = better substrate or ligand; peptides without Tyr show the background
Entry flag: rule met if phosphorylation enrichment reaches 0.5; rule not met if it does not.

Solved cases (3 shown):
| SEQUENCE DATA | SYSTEM UNDER TEST | CLASS |
| --- | --- | --- |
| FAREGYSALPQ [SARS2_Y52_YF] | Fer (mouse) | rule not met |
| PADCRYYTFPQ [GAMT_Y222_A224T] | Fer (mouse) | rule met |
| FRASFYRRGDR [LTK_Y677_YF] | Fer (mouse) | rule not met |

Incoming: Could you verify whether the entry YLGRDYLETLM [DUS3L_Y610] shows phosphorylation enrichment of no less than 0.5?
Outgoing: rule met

Incoming: Could you verify whether the entry TEDELYQLFLQ [RASGRP2_Y378_S381F] shows phosphorylation enrichment of no less than 0.5?
Outgoing: rule met

Incoming: Could you verify whether the entry SNYRAYATEPQ [TNNI3_Y29_H34Q] shows phosphorylation enrichment of no less than 0.5?
Outgoing: rule not met

Incoming: Could you verify whether the entry FRVAGYETQGG [TIA1_Y383_YF] shows phosphorylation enrichment of no less than 0.5?
Outgoing: rule not met

----------
Tested on: c-Src
Assay: phosphorylation enrichment, bacterial display (enrichment ratio); higher = better substrate or ligand; peptides without Tyr show the background
READOUT KIND: phosphorylation enrichment
Kindly provide the number alone.

Example cases with answers are listed next.
| SEQUENCE DATA | OBSERVED VALUE |
| --- | --- |
| ISSLDYISKTK [VAV3_Y294] | 0.487 |
| IHHIDYFKKTT [FGFR1_Y653_YF] | 0.545 |
| PIDLFYLMDLS [ITGB2_Y131_YF] | 1.52 |

Lab book: phosphorylation enrichment of RRIHRYRGHLW [VHL_Y112_S111R] noted as 0.49

Lab book: phosphorylation enrichment of FMFKVYSDPQP [FGFR1_Y280_C277Y_YF] noted as 0.398

Lab book: phosphorylation enrichment of HEHVGYTTLNR [CHN1_Y148_Y143H] noted as 0.618

Lab book: phosphorylation enrichment of RRIHSYRRHLW [VHL_Y112_G114R] noted as 0.584

----------
Test system: AncSZ
Assay: phosphorylation enrichment, bacterial display (enrichment ratio); higher = better substrate or ligand; peptides without Tyr show the background
Note: every record was labeled by where its phosphorylation enrichment sits among small value: < 0.9; mid value: ≥ 0.9 and < 1; large value: ≥ 1

Solved cases (5 shown):
| SEQUENCE DATA | SYSTEM UNDER TEST | CLASS |
| --- | --- | --- |
| TVQIMYGCDVG [HLA-A_Y123_I119V] | AncSZ | mid value |
| LTTEAYEWEPC [ELMOD3_Y61_R66C] | AncSZ | large value |
| GPIIRYDLGGA [CYP11B1_Y81_F79I] | AncSZ | small value |
| EAGKVYLKAPM [CBFB_Y96] | AncSZ | small value |
| SHPSSYTTHPQ [NIPBL_Y195] | AncSZ | small value |

Incoming: Category of FRASFYRRGDR [LTK_Y677_YF] :
Outgoing: small value

Incoming: Category of EGDGVYTLNNK [HP_Y125_E130K] :
Outgoing: small value

Incoming: Category of HAVFVCDICHV [TWNK_Y508_Y508C_YF] :
Outgoing: mid value

Incoming: Category of LGQRIYQYIRS [DYRK1B_Y271_Q275R] :
Outgoing: large value

Incoming: Category of LDVDVYGPSVP [NUBPL_Y109] :
Outgoing: large value

Incoming: Category of TEDELYQLFLQ [RASGRP2_Y378_S381F] :
Outgoing: large value

Incoming: Category of RGRSTYFWPRP [GAGE12J_Y9_YF] :
Outgoing: large value

Incoming: Category of MTRDIYRASFF [ALK_Y1278_A1274T_YF] :
Outgoing: small value

Incoming: Category of CFTRKYTLPPG [HSPB1_Y142] :
Outgoing: small value

Incoming: Category of ADKAAYLQSLN [MYH2_Y389] :
Outgoing: small value

Incoming: Category of EKSREYHRLFE [PIK3R1_Y463_D464H_YF] :
Outgoing: small value

Incoming: Category of LSFSEYASVQV [SIRPA_Y496_P491L] :
Outgoing: large value

Incoming: Category of YVSSFYHAFSG [ACTN4_Y265] :
Outgoing: large value

Incoming: Category of QPEDIYHQTWA [GBA_Y244_G241E] :
Outgoing: large value

Incoming: Category of ADARMCGVLPW [PLP1_Y207_Y207C] :
Outgoing: mid value

----------
Molecular target: Jak2 (UniProt O60674)
Sequence (O60674 whole entry, looked up): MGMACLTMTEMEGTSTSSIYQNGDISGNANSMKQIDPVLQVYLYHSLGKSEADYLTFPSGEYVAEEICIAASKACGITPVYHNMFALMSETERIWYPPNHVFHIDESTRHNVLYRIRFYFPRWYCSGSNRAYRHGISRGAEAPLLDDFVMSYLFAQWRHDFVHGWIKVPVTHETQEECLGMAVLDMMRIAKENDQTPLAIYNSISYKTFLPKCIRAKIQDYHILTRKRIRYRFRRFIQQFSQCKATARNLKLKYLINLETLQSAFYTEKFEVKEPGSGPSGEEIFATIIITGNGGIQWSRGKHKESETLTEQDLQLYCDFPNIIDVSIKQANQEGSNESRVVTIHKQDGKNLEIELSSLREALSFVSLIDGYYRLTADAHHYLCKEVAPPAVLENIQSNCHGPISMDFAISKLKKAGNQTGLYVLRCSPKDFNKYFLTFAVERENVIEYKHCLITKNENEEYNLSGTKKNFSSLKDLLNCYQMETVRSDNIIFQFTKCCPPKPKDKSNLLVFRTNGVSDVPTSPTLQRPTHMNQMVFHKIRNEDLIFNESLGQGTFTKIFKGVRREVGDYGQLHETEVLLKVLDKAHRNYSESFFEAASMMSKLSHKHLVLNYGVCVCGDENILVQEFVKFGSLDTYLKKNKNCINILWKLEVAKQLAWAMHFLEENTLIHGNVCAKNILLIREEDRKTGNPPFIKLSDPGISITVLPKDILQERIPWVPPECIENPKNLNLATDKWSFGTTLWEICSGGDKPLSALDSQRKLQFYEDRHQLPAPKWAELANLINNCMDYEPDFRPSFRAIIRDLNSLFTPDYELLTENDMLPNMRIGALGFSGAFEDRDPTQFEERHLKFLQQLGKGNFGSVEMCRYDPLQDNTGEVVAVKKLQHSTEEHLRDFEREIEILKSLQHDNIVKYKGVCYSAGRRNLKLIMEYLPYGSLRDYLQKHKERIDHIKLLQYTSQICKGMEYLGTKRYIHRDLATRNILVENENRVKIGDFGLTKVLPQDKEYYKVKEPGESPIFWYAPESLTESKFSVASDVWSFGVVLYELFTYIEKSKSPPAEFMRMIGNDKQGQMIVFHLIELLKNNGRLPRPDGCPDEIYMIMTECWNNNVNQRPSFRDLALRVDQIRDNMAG
Experiment: phosphorylation enrichment, bacterial display (enrichment ratio); higher = better substrate or ligand; peptides without Tyr show the background
READOUT KIND: phosphorylation enrichment
Kindly provide the number alone.

Example cases with answers are listed next.
| SEQUENCE DATA | phosphorylation enrichment |
| --- | --- |
| SLGSPYGQPPR [PDLIM4_Y137] | 0.484 |
| LVRAFYCERRR [CARD11_Y970] | 0.705 |
| VPFAQYLAMNK [HARS1_Y138_R137Q] | 0.838 |

Lab book: phosphorylation enrichment of MSYDRYMAICH [OR2A5_Y123] noted as 0.895

Lab book: phosphorylation enrichment of IQVNAYFSPIH [ADSL_Y432_D430N] noted as 2.16

Lab book: phosphorylation enrichment of PLDGESFTLQI [TP53_Y327_Y327S] noted as 1.26

Lab book: phosphorylation enrichment of FSCLPYGRLAF [SLC52A2_Y305_YF] noted as 1.03

Lab book: phosphorylation enrichment of AEDKPYAELWM [MPI_Y46] noted as 1.09

Lab book: phosphorylation enrichment of AHAGEYGAVAL [HBA1_Y25_E28V] noted as 0.511

Lab book: phosphorylation enrichment of WASQRYGRELR [BAD_Y110_A107S] noted as 0.644

Lab book: phosphorylation enrichment of RPSELYYSKIG [SMG1_Y2253] noted as 1.06

Lab book: phosphorylation enrichment of NALVQYQEMEK [BBS4_Y395_A393V] noted as 1.02

Lab book: phosphorylation enrichment of LRSELYFLIAR [PHIP_Y16] noted as 3.62

Lab book: phosphorylation enrichment of CTTIHYNFMCN [TP53_Y234_Y236F] noted as 0.824

Lab book: phosphorylation enrichment of TGEKLYQRKEF [ZNF283_Y627] noted as 0.59

Lab book: phosphorylation enrichment of RPSGRYPVARR [SHANK3_Y1569] noted as 0.619

Lab book: phosphorylation enrichment of FEPWVYSFSFE [PRKDC_Y647_YF] noted as 1.25

Lab book: phosphorylation enrichment of YCRHNYGVGES [HLA-DRB1_Y112_V115G] noted as 0.65

Lab book: phosphorylation enrichment of IFQASYFRRGD [LTK_Y676_R673Q_YF] noted as 1.18

Lab book: phosphorylation enrichment of MYDKEYYSVHN [MET_Y1234] noted as 2.53

Reference source for all entries: the supplement of paper PMC10065799
